- Method notes: UV absorbance spectrum in solution (λmax, λcrit, extinction coefficients)
- Type: physicochemical
- Settings: mass extinction coefficient
Class membership depends on E (1%, 1 cm) alone; the intervals are I (below 700), II (700 to below 900), III (900 or more)

// below: answered molecules
COC(=O)c1ccc2c(c1)CCN2C=C(C(=O)c1c(C)cc(C)cc1C)c1ccccc1 [Compound 282] | III
Cc1cc(C)c(C(=O)/C(=C/N(c2ccccc2)c2ccccc2)c2ccccc2)c(C)c1 [Compound 254] | I
O=C(/C(=C\N(c1ccccc1)c1ccccc1)c1ccccc1)C(F)(F)F [Compound 143] | II

Note: place this molecule into its band. Item: CN(C)C(=O)C(=O)/C(=C/N(c1ccccc1)c1ccccc1)c1ccccc1 [Compound 257] I

Exam item: assign CCOC(=O)C(=O)/C(=C/N(c1ccccc1)c1ccccc1)c1ccccc1 [Compound 237] to the correct category. II

Class label required: COC(=O)c1ccc2c(c1)CCN2/C=C(/C(=O)c1cccc(C)c1)c1ccccc1 [Compound 286] III

Tag the class for O=C(/C(=C\N1CCc2cc(C(F)(F)F)ccc21)c1ccccc1)C(F)(F)F [Compound 235] III

###

- Method notes: % transmission spectrum of 0.1% solution (breakthrough, steepness)
- Assay type: physicochemical
- Settings: distance in nm over which transmittance increases from 1 to 80%
Please go through the items and note down their Steepness.
Give bare numbers, in nm.

Example entries and their recorded answers appear below.
Cc1cc(C)c(C(=O)/C(=C/N2CCc3ccccc32)c2ccccc2)c(C)c1 | 26
CC(C)(C)OC(=O)C(=O)/C(=C/N1CCc2ccccc21)c1ccccc1 | 32
COC(=O)c1ccc2c(c1)CCN2/C=C(/C(=O)OC1(C)CCCCC1)c1ccccc1 | 28
COC(=O)c1ccc2c(c1)CCN2/C=C(/C(=O)c1ccc(C)cc1)c1ccccc1 | 30
CCCN(/C=C(/C(=O)C(F)(F)F)c1ccccc1)c1ccccc1 | 36
O=C(C(=O)N1CCc2ccccc21)/C(=C/N1CCc2ccccc21)c1ccccc1 | 26
CCN(/C=C(/C(=O)c1ccccc1)c1ccccc1)CC | 48
CCC(CC)(CC)OC(=O)/C(=C/N1CCc2cc(C(=O)OC)ccc21)c1ccccc1 | 18
CN(C)C(=O)C(=O)/C(=C\N1CCc2ccccc21)c1ccccc1 | 23
CCOC(=O)C(=O)/C(=C/N1CCc2cc(C(=O)OC)ccc21)c1ccccc1 | 28

Record Steepness for all entries; do not skip any.
1. CCCCC(CC)COC(=O)c1ccc2c(c1)CCN2/C=C(/C(=O)c1ccncc1)c1ccccc1 (centres unmarked)
2. COC(=O)c1ccc2c(c1)CCN2/C=C(/C(=O)C(=O)Oc1ccccc1)c1ccccc1
3. CCCCC(CC)COC(=O)c1ccc2c(c1)CCN2/C=C(/C(=O)C(C)(C)C)c1ccc(Br)cc1 (centres unmarked)
4. Cc1ccccc1C(=O)/C(=C/N1CCc2ccccc21)c1ccccc1
5. CCN(/C=C(\C(=O)C(=O)N(C)C)c1ccccc1)c1ccccc1
6. CCN(/C=C(/C(=O)C(F)(F)F)c1ccccc1)c1ccc(C(=O)OC)cc1
7. CCN(/C=C(/C(=O)c1ccccc1OC)c1ccccc1)c1ccccc1

[41, 34, 19, 30, 34, 28, 40]

###

- Method notes: UV absorbance spectrum in solution (λmax, λcrit, extinction coefficients)
- Assay type: physicochemical
- Settings: molar extinction coefficient; in M-1 cm-1 (unit assumed)
Would you mind telling me the reported ε of each entry?

Solved cases (7 shown):
O=C(/C(=C\N1CCN(/C=C(/C(=O)C(F)(F)F)c2ccccc2)CC1)c1ccccc1)C(F)(F)F | 33248
Cc1cc(C)c(C(=O)/C(=C/N2CCc3ccccc32)c2ccccc2)c(C)c1 | 34122
O=C(/C(=C\N1CCc2ccccc21)c1ccccc1)C(F)(F)F | 35741
CCN(/C=C(\C(=O)C(F)(F)F)c1ccccc1)c1cccc(Br)c1 | 24181
Cc1ccc2c(c1)CCN2/C=C(\C(=O)C(F)(F)F)c1ccccc1 | 36692
CCCCC(CC)COc1ccc(N(/C=C(\C(=O)C(F)(F)F)c2ccccc2)CC)cc1 (centres unmarked) | 23819
O=C(/C(=C\N1CCCN(/C=C(/C(=O)C(F)(F)F)c2ccccc2)CC1)c1ccccc1)C(F)(F)F | 40611

Please turn your attention to the following entry.
Look at this molecule and give its reported ε. `CCN(/C=C(/C(=O)C(F)(F)F)c1ccccc1)c1ccc(C(=O)OC)cc1` 25349

###

- Method notes: UV absorbance spectrum in solution (λmax, λcrit, extinction coefficients)
- Format: physicochemical
- Settings: critical wavelength
Kindly state λcrit for each of the entries shown.
Numbers only, in nm.

CCN(/C=C(\C(=O)C(F)(F)C(F)(F)C(F)(F)F)c1ccccc1)c1ccccc1 | 370
COc1ccccc1C(=O)/C(=C/N(c1ccccc1)c1ccccc1)c1ccccc1 | 378
COC(=O)c1ccc2c(c1)CCN2/C=C(/C(=O)C(=O)N1CCc2ccccc21)c1ccccc1 | 391
O=C(/C(=C\N1CCCCc2ccccc21)c1ccccc1)C(F)(F)F | 359

// each listed compound needs a value for λcrit
1. CCC(CC)(CC)OC(=O)/C(=C/N1CCc2cc(C(=O)OC)ccc21)c1ccccc1
2. CCN(/C=C(\C(=O)C(F)(F)F)c1ccccc1)CCOC(=O)c1ccc2c(c1)CCN2/C=C(\C(=O)C(F)(F)F)c1ccccc1

1: 370; 2: 388

Go through the items and report each one's λcrit.
1. O=C(/C(=C\N(c1ccccc1)c1ccccc1)c1ccccc1)C(F)(F)F
2. CCOC(=O)C(=O)/C(=C\N(CC)c1ccccc1)c1ccccc1
3. CCOC(=O)C(=O)/C(=C/N(CC)CC)c1ccccc1
4. COC(=O)c1ccc2c(c1)CCN2/C=C(/C(=O)C(C)(C)C)c1ccccc1
5. O=C(/C(=C\N1CCc2cc(F)ccc21)c1ccccc1)C(F)(F)F
6. O=C(/C(=C\N1CCCN(/C=C(/C(=O)C(F)(F)F)c2ccccc2)CC1)c1ccccc1)C(F)(F)F
7. CCN(/C=C(\C(=O)C(=O)N(C)C)c1ccccc1)c1ccccc1

1: 381; 2: 368; 3: 352; 4: 384; 5: 389; 6: 356; 7: 365

Could you report λcrit for every entry in the following list?
1. CN(C)/C=C(/C(=O)c1ccccc1)c1ccccc1
2. CCN(/C=C(\C(=O)C(F)(F)F)c1ccccc1)c1cccc2ccccc12
3. CC(C)(C)OC(=O)C(=O)/C(=C/N(c1ccccc1)c1ccccc1)c1ccccc1
4. COC(=O)c1ccc2c(c1)CCN2/C=C(\C(=O)C(F)(F)F)c1ccccc1

1. 361
2. 357
3. 381
4. 391

###

- Method notes: UV absorbance spectrum in solution (λmax, λcrit, extinction coefficients)
- Assay type: physicochemical
- Settings: mass extinction coefficient
E (1%, 1 cm) strictly less than 800 = Fulfilled. Otherwise Not fulfilled.

For this molecule, is E (1%, 1 cm) lower than 800? `CN(/C=C(\C(=O)C(F)(F)F)c1ccccc1)c1ccccc1` Fulfilled

###

- Method notes: UV absorbance spectrum in solution (λmax, λcrit, extinction coefficients)
- Type: physicochemical
- Settings: molar extinction coefficient; in M-1 cm-1 (unit assumed)
We label by threshold. Values of ε strictly beneath 40000 are T. Values of 40000 and up are F.

Is it true that ε reported for `COC(=O)c1ccc2c(c1)CCN2C=C(C(=O)C(C)(C)C)c1ccc(C(C)(C)C)cc1` is less than 40000? F

Report whether reported ε is lower than 40000 (strictly) for `CC(C)(C)C(=O)/C(=C/N1CCc2cc(C(=O)OCCCOC(=O)c3ccc4c(c3)CCN4/C=C(/C(=O)C(C)(C)C)c3ccccc3)ccc21)c1ccccc1` F

Item `O=C(/C(=C\N1CCCCC1)c1ccccc1)C(F)(F)F` : ε beneath 40000, strictly? T

Item `COC(=O)c1ccc2c(c1)CCN2/C=C(/C(=O)C(=O)OC(C)(C)C)c1ccccc1` : ε beneath 40000, strictly? F

Confirm or reject: ε of `COC(=O)c1ccc(N(/C=C(\C(=O)C(F)(F)F)c2ccccc2)c2ccccc2)cc1` lies strictly below 40000 T

###

- Method notes: % transmission spectrum of 0.1% solution (breakthrough, steepness)
- Type: physicochemical
- Settings: distance in nm over which transmittance increases from 1 to 80%
Quantity kind: Steepness (nm)
Numbers only, in nm.

CCOC(=O)C(=O)/C(=C/N(c1ccccc1)c1ccccc1)c1ccccc1 [Compound 237] | 39

Okay, here is my list. What is Steepness for each of these?
1. O=C(/C(=C/N(c1ccccc1)c1ccccc1)c1ccccc1)c1ccccc1 [Compound 244]
2. CN(C)S(=O)(=O)c1ccc(C(=O)/C(=C/N2CCc3ccccc32)c2ccccc2)cc1 [Compound 266]
3. CCN(/C=C(/C(=O)C(=O)N(C)C)c1ccccc1)CC [Compound 261]
4. Cc1ccc(C(=O)/C(=C/N(c2ccccc2)c2ccccc2)c2ccccc2)cc1 [Compound 274]

1: 43; 2: 46; 3: 28; 4: 42
